Entry source: ChEMBL document CHEMBL1129240

- ASSAY PROTOCOL: Cytotoxic concentration required to cause microscopically detectable alteration of normal cell morphology of E6SM cells
- Type: cell-based
- STUDY CONDITIONS: human, read-out: CC50
OBSERVABLE: MCC (µg/mL)

1. Cc1c(Br)c(C)n2c(CSCCO)cnc2c1Br	100
2. CCOC(=O)CSCc1cnc2cc(C)ccn12	200
3. Cc1cccc2ncc(CSCCO)n12	200
4. Cc1cccc2ncc(CSCC(O)CO)n12 (stereo unspecified)	400
5. Cc1cccc2ncc(CSCc3ccccc3)n12	10
6. Cc1cccn2c(CSCCO)cnc12	400
7. CCSCc1cnc2c(C)cccn12	200
8. OCCCSCc1cnc2c(Cl)cc(C(F)(F)F)cn12	100
9. OCCSCc1cnc2ccccn12	400
10. Cc1ccn2c(CSCc3ccccc3)cnc2c1	100
11. Cc1c(Br)cn2c(CSCc3ccccc3)cnc2c1Br	40
12. Cc1cccn2c(CSCc3ccccc3)cnc12	40
13. c1ccc(CSCc2cnc3ncccn23)cc1	100
14. Cc1cccc2ncc(CSCC(C)O)n12 (stereo unspecified)	400
15. CCSCc1cnc2cc(C)ccn12	40

---

Documented CC50 across a set of compounds
- ASSAY PROTOCOL: Minimum cytotoxic concentration required to reduce human embryonic lung (HEL) cell proliferation by 50%
- Format: cell-based
- STUDY CONDITIONS: human embryonic lung (HEL) cells, read-out: MCC
OBSERVABLE: CC50

1. OCCSCc1cnc2ccccn12	> 100 µg/mL
2. COC(=O)c1nc2ccccn2c1CSCCO	> 100 µg/mL

---

Documented MCC across a set of compounds
- ASSAY PROTOCOL: Cytotoxic concentration required to cause microscopically detectable alteration of normal cell morphology of HeLa cells
- Assay type: cell-based
- STUDY CONDITIONS: human, read-out: CC50
OBSERVABLE: MCC (µg/mL)

1) OCCCSCc1cnc2c(Cl)cc(C(F)(F)F)cn12	100
2) OCCSCc1cnc2ccccn12	200
3) c1ccc(CSCc2cnc3ncccn23)cc1	40
4) CCSCc1cnc2c(C)cccn12	10
5) Cc1cccc2ncc(CSCc3ccccc3)n12	40
6) Cc1cccn2c(CSCCO)cnc12	40
7) Cc1cccc2ncc(CSCC(C)O)n12 (stereo unspecified)	100
8) CCSCc1cnc2cc(C)ccn12	100

---

- System: Cytomegalovirus
- ASSAY PROTOCOL: Minimum Inhibitory Concentration (MIC) tested for activity against Cytomegalovirus (CMV) using AD169 strain
- Assay type: functional
- STUDY CONDITIONS: Human betaherpesvirus 5
OBSERVABLE: MIC

1) Cc1cccc2ncc(CSCC(C)O)n12 (stereo unspecified)	> 10 µg/mL
2) Cc1cccn2c(CSCCO)cnc12	7 µg/mL
3) Cc1c(Br)c(C)n2c(CSCc3ccccc3)cnc2c1Br	1.7 µg/mL
4) Cc1c(Br)c(C)n2c(CSCCO)cnc2c1Br	> 10 µg/mL
5) Cc1cccc2ncc(CSCCO)n12	> 10 µg/mL
6) COC(=O)c1nc2ccccn2c1CSCCO	> 50 µg/mL

---

Documented CC50 across a set of molecules
- ASSAY PROTOCOL: Minimum cytotoxic concentration to reduce the HEL cell proliferation by 50%
- Type: cell-based
- STUDY CONDITIONS: human, HEL cells; read-out: MCC
OBSERVABLE: CC50 (µg/mL)

1) Cc1cccc2ncc(CSCC(O)CO)n12 (centres undefined)	75
2) Cc1cccc2ncc(CSCCO)n12	40
3) CCOC(=O)CSCc1cnc2cc(C)ccn12	80
4) Cc1c(Br)cn2c(CSCc3ccccc3)cnc2c1Br	30
5) Cc1cccn2c(CSCCO)cnc12	85
6) Cc1ccn2c(CSCc3ccccc3)cnc2c1	45
7) Cc1c(Br)cn2c(CSCCO)cnc2c1Br	50
